List of reverse-splicing fitness values.
B1: Azoarcus group I ribozyme (parent)
chain: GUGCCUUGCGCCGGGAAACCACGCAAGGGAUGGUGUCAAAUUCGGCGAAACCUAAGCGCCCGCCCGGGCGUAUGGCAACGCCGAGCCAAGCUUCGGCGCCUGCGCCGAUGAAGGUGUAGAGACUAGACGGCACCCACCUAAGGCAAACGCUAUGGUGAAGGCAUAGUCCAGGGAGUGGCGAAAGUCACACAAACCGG

variants of: B1; experiment: reverse-splicing fitness (ratio to wild type); higher = more active; in vitro selection; Mg2+ level not given
REPORTED_PROPERTY: reverse-splicing fitness

mutant_designation="A111C A120U C150G C169U U176C" reported_property="reverse-splicing fitness" experimental_result=0.00564
mutant_designation="A111U A120C C150U C169U" reported_property="reverse-splicing fitness" experimental_result=0.0972
mutant_designation="C82G A111U A120U A145U C150G C169U U176A" reported_property="reverse-splicing fitness" experimental_result=0.00286
mutant_designation="A111U A120U A145G C169U U176C" reported_property="reverse-splicing fitness" experimental_result=0.0176
mutant_designation="C82G A111C A120U A145C C150U C169G U176C" reported_property="reverse-splicing fitness" experimental_result=0.00305
mutant_designation="C82U A111C A120C A145C C169U U176C" reported_property="reverse-splicing fitness" experimental_result=0.0147
mutant_designation="C82U A145G C150U C169A U176G" reported_property="reverse-splicing fitness" experimental_result=0.00522
mutant_designation="C82G A120U C169U U176C" reported_property="reverse-splicing fitness" experimental_result=0.00518
mutant_designation="C82G A111G C150A C169U U176G" reported_property="reverse-splicing fitness" experimental_result=0.00706
mutant_designation="A111U C150G C169A U176A" reported_property="reverse-splicing fitness" experimental_result=0.0102
mutant_designation="C82G A111G A120G C150G C169A" reported_property="reverse-splicing fitness" experimental_result=0.00983
mutant_designation="C82A A120G A145G C150A C169U U176C" reported_property="reverse-splicing fitness" experimental_result=0.0185
mutant_designation="C82A A111C A145U C150G C169A U176A" reported_property="reverse-splicing fitness" experimental_result=0.0098
mutant_designation="C82A A111G A145U C150G C169U" reported_property="reverse-splicing fitness" experimental_result=0.00964
mutant_designation="A111G A120C A145U C150G C169U U176A" reported_property="reverse-splicing fitness" experimental_result=0.0072
mutant_designation="C82U A111U A120U A145G C169A U176C" reported_property="reverse-splicing fitness" experimental_result=0.00291
mutant_designation="C82G A111C A120G C150G C169U" reported_property="reverse-splicing fitness" experimental_result=0.00835
mutant_designation="C82U A120U A145U C150A C169U U176G" reported_property="reverse-splicing fitness" experimental_result=0.00172
mutant_designation="A145U C150G U176G" reported_property="reverse-splicing fitness" experimental_result=0.108

These measurements were taken from the RNAGym collection of RNA variant scans (doi:10.1093/molbev/msab373).
